# experiment: Blood clearance in rat
# Format: ADME, organism-based
# assayContext: whole blood
propertyMeasured: clearance (mL/min/kg)
Give bare numbers, in mL/min/kg.

Looking up CO[C@@H]1COCC[C@@H]1N[C@@H]1CC[C@@](C(=O)N2CCN(c3cc(C(F)(F)F)ccn3)CC2)(C(C)C)C1 , I see its clearance listed as 33.8

* * *

# experiment: Bioavailability in rat at 1 mg/kg, po and iv
# Format: ADME, organism-based
# assayContext: in vivo
propertyMeasured: bioavailability (%)
Numbers only, in %.

Record summary for CO[C@@H]1COCC[C@@H]1N[C@@H]1CC[C@@](C(=O)N2CCN(c3cc(C(F)(F)F)cnn3)CC2)(C(C)C)C1 : reported bioavailability = 50

* * *

Exercise: for every item that follows, state its recorded logD.
# experiment: Lipophilicity, log D of the compound at pH 7.4
# Assay type: physicochemical
# assayContext: buffer
Numbers only.

# sampleSmiles, logD
data = [
    ("CO[C@@H]1COCC[C@@H]1N[C@@H]1CC[C@@](C(=O)N2CCN(c3cc(C(F)(F)F)cnn3)CC2)(C(C)C)C1", 0.5),
]

Looking up CO[C@@H]1COCC[C@@H]1N[C@@H]1CC[C@@](C(=O)N2CCN(c3ccnc(C(F)(F)F)c3)CC2)(C(C)C)C1 , I see its logD listed as 0.7

* * *

# experiment: in vivo
# assayContext: rat, brain and plasma
propertyMeasured: Kp
Answers are plain numbers.

// Kp value for CO[C@@H]1COCC[C@@H]1N[C@@H]1CC[C@@](C(=O)N2CCN(c3cc(C(F)(F)F)ccn3)CC2)(C(C)C)C1 : 3

* * *

# experiment: Intrinsic clearance in human liver microsomes
# Assay type: ADME, Microsome
propertyMeasured: microsomal CLint

# compound, microsomal CLint
rows = [
    ("CO[C@@H]1COCC[C@@H]1N[C@@H]1CC[C@@](C(=O)N2CCN(c3cc(C(F)(F)F)cnn3)CC2)(C(C)C)C1", "< 7 µL/min/mg"),
]

Give me microsomal CLint for each of these compounds, listed below.
1. CC(C)[C@]1(C(=O)N2CCN(c3cc(C(F)(F)F)ccn3)CC2)CC[C@@H](N2CCC3COCCC32)C1 (stereo in doubt; 22)
2. CO[C@@H]1COCC[C@@H]1N[C@@H]1CC[C@@](C(=O)N2CCN(c3ccnc(C(F)(F)F)c3)CC2)(C(C)C)C1

Response:
< 7 µL/min/mg
< 7 µL/min/mg
